# Experimental details: Solubility in toluene (Compound Properties, Table 1)
# Type: physicochemical
# Run conditions: organic solvent or mixture
Label False if solubility falls below 20 mg/mL; label True in every other case.

Known results for compounds:
Chemical smiles: c1ccc(-c2cc(-c3ccc(-c4ccc5ccccc5c4)cc3)nc3c2ccc2c(-c4ccccc4)cc(-c4ccc(-c5ccc6ccccc6c5)cc4)nc23)cc1
Cat: False

Chemical smiles: c1ccc(N(c2ccccc2)c2cccc(-c3ccnc4c3ccc3c(-c5cccc(N(c6ccccc6)c6ccccc6)c5)ccnc34)c2)cc1
Cat: True

Chemical smiles: c1ccc(-c2cc(-c3cccc(-n4c5ccccc5c5ccccc54)c3)nc3c2ccc2c(-c4ccccc4)cc(-c4cccc(-n5c6ccccc6c6ccccc65)c4)nc23)cc1
Cat: False

Chemical smiles: c1ccc(-c2cc(-c3c4ccccc4c(-c4ccc(-c5cccc6ccccc56)cc4)c4ccccc34)nc3c2ccc2c(-c4ccccc4)cc(-c4c5ccccc5c(-c5ccc(-c6cccc7ccccc67)cc5)c5ccccc45)nc23)cc1
Cat: False

We next turn to a different compound, shown below.
State whether the measured solubility reaches 20 mg/mL, counting equality as reaching it, for `c1ccc(-c2ccccc2-c2cc(-c3ccccc3)c3ccc4c(-c5ccccc5)cc(-c5ccccc5-c5ccccc5)nc4c3n2)cc1`
True

Every entry's value here was drawn from patent US8309731B2.
